// data source = ChEMBL document CHEMBL3351540

- System: K562
- measurement_description: Induction of apoptosis in human K562 cells using annexin-V/PI staining by flow cytometry
- Type: functional, cell-based
measurement_kind: AC50 (µM)
Answers are plain numbers, in µM.

- input_smiles: "O=C(CCCCCCNC(=O)c1ccc(-c2ccc(-c3cc(O)cc(O)c3)cc2)cc1)NO"
  measured_value: 16

Task: # AC50 lookup, item O=C(CCCCCNC(=O)c1ccc(-c2ccc(-c3cc(O)cc(O)c3)cc2)cc1)NO
Result: 38

---

- measured_on: Histone deacetylase 4 (Homo sapiens, UniProt P56524)
- Sequence (P56524 whole entry): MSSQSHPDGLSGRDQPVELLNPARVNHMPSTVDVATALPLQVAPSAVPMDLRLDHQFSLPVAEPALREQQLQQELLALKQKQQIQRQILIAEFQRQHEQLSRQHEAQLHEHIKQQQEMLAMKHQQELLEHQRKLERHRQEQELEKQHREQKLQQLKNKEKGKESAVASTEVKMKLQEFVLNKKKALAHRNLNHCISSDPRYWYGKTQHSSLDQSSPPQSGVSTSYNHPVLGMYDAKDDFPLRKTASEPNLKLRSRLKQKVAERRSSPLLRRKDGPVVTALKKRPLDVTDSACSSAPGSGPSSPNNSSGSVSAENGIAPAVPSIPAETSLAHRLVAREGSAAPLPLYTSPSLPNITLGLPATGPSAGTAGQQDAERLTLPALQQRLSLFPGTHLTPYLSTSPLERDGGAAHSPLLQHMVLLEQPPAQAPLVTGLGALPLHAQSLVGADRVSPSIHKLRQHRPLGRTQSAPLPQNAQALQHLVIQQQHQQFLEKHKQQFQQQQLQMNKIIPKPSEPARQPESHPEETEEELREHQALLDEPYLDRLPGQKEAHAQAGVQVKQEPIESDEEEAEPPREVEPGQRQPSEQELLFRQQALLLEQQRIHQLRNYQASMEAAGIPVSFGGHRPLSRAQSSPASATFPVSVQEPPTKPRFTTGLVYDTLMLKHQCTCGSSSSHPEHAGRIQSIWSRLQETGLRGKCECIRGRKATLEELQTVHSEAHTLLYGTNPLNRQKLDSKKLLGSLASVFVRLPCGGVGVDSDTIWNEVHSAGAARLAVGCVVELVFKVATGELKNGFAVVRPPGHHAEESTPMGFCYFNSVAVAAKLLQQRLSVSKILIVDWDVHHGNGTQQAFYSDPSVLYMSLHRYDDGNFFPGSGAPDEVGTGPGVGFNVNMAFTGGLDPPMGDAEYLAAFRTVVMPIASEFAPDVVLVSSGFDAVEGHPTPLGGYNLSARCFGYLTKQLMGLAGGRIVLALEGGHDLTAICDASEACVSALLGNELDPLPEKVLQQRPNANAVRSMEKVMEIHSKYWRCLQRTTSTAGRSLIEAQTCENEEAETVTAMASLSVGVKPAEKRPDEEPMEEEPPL
- measurement_description: Inhibition of human recombinant HDAC4 using (S)-[5-Acetylamino-1-(2-oxo-4-trifluorometyl-2Hchromen-7-ylcarbamoyl)pentl]carbami acid tert-Butyl Ester as substrate after 1 hr by fluorescent activity assay
For each entry below, report its IC50 value.
Numbers only, in µM.

- input_smiles: "COc1cc(/C=C/c2ccc(OC)c(NC(=O)CCCCCCC(=O)NO)c2)cc(OC)c1"
  IC50 (µM): 9.8

Please examine the following record next.
Task: # IC50 lookup, item COc1cc(/C=C\c2ccc(OC)c(NC(=O)CCCCCCC(=O)NO)c2)cc(OC)c1
Result: 7.6

---

- Test system: K562
- measurement_description: Induction of apoptosis in human K562 cells using annexin-V/PI staining by flow cytometry
- Assay type: functional, cell-based
measurement_kind: log10 of AC50 (log10 of the value in µM)
The figures below represent log10 of AC50, where AC50 is stated in µM.

Respectfully, I request log10 of AC50 for each entry included below.
1. COc1cc(/C=C/c2ccc(OC)c(N)c2)cc(OC)c1
2. COc1cc(/C=C\c2ccc(OC)c(NC(=O)CCCCCCC(=O)NO)c2)cc(OC)c1
3. O=C(CCCCCCC(=O)Nc1ccccc1)NO
4. COc1cc(/C=C/c2ccc(OC)c(NC(=O)CCCCCCC(=O)NO)c2)cc(OC)c1
5. COc1cc(/C=C\c2ccc(OC)c(N)c2)cc(OC)c1

Result:
1: 1.30; 2: 1.60; 3: 1.00; 4: 0.70; 5: -0.60

---

- measured_on: Protein deacetylase HDAC6 (Homo sapiens, UniProt Q9UBN7)
- Sequence (Q9UBN7 whole entry): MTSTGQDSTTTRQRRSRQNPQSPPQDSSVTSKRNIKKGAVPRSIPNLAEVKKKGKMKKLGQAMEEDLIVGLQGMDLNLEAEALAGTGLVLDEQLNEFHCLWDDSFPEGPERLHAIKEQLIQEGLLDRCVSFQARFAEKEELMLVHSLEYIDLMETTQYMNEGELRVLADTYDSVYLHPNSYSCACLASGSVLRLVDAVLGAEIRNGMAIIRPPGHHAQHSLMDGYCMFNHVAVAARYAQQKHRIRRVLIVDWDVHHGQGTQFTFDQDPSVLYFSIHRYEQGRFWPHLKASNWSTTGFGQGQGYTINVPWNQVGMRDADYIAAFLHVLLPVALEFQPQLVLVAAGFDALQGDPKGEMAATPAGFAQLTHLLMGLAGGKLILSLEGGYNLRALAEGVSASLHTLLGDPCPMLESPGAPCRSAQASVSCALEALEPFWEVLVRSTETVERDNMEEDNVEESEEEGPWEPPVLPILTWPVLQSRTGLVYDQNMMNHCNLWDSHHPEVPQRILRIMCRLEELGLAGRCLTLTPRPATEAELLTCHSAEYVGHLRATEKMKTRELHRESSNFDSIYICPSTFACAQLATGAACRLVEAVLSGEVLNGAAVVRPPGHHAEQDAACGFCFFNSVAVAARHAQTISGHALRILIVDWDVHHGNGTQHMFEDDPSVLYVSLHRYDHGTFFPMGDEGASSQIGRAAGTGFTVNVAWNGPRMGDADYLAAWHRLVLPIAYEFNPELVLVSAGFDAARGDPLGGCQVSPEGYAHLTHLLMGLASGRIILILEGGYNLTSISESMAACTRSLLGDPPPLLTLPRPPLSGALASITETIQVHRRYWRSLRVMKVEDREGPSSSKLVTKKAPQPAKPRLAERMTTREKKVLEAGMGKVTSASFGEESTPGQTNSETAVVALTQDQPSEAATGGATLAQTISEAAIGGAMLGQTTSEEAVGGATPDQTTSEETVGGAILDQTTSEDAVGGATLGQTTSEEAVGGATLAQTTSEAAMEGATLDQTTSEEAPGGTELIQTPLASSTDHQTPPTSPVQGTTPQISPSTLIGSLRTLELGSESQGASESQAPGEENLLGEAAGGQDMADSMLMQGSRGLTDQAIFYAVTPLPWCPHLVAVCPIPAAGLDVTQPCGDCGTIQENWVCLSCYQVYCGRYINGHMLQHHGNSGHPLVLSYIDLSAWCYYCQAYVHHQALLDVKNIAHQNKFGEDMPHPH
- measurement_description: Inhibition of human recombinant HDAC6 using Z-MAL as substrate after 1 hr by fluorescent activity assay
measurement_kind: IC50 (nM)
Numbers only, in nM.

- input_smiles: "COc1cc(/C=C\\c2ccc(OC)c(NC(=O)CCCCCCC(=O)NO)c2)cc(OC)c1"
  unit_of_measurement: "nM"
  measured_value: 1600

Please examine the following record next.
Task: Param readout= IC50; system= Protein deacetylase HDAC6 (Homo sapiens, UniProt Q9UBN7); entry= COc1cc(/C=C/c2ccc(OC)c(NC(=O)CCCCCCC(=O)NO)c2)cc(OC)c1 ; returns value.
Result: 1300

---

- measured_on: Histone deacetylase 1 (Homo sapiens, UniProt Q13547)
- Sequence (Q13547 whole entry): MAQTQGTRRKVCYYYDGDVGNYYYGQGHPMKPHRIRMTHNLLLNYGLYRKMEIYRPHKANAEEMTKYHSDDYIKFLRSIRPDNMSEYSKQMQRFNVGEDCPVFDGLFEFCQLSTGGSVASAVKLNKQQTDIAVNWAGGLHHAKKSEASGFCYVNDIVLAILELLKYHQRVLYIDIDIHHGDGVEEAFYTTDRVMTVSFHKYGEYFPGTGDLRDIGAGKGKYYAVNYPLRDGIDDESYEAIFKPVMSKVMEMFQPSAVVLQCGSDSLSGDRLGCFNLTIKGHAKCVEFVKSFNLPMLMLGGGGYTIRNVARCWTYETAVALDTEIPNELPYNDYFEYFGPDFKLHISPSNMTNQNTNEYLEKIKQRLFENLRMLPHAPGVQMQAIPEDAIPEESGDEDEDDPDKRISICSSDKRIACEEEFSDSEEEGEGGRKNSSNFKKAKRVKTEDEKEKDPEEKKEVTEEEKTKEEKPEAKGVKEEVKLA
- measurement_description: Inhibition of human recombinant HDAC1 using modified Boc-Lys(Ac)-AMC MAL as substrate after 1 hr by fluorescent activity assay
For each entry below, report its pIC50 value.
Answers are plain numbers, as −log10 of the molar value.

Before answering, review these 4 worked examples.
- input_smiles: "COc1cc(/C=C\\c2ccc(OC)c(NC(=O)CCCCCCC(=O)NO)c2)cc(OC)c1"
  measurement_kind: "pIC50"
  measured_value: 5.68
- input_smiles: "COc1cc(/C=C/c2ccc(OC)c(NC(=O)CCCCCCC(=O)NO)c2)cc(OC)c1"
  measurement_kind: "pIC50"
  measured_value: 6.10
- input_smiles: "O=C(NO)c1ccc(-c2ccc(-c3cc(O)cc(O)c3)cc2)cc1"
  measurement_kind: "pIC50"
  measured_value: 5.05
- input_smiles: "O=C(CCCCCCNC(=O)c1ccc(-c2ccc(-c3cc(O)cc(O)c3)cc2)cc1)NO"
  measurement_kind: "pIC50"
  measured_value: 4.80

Please examine the following record next.
Task: Param readout= pIC50; system= Histone deacetylase 1 (Homo sapiens, UniProt Q13547); entry= O=C(CCCCCNC(=O)c1ccc(-c2ccc(-c3cc(O)cc(O)c3)cc2)cc1)NO ; returns value.
Result: 6.05
